# Test system: Streptococcus pneumoniae
# Measurement Protocol: Antibacterial activity against cefotaxime-resistant Streptococcus pneumoniae isolate by agar dilution method
# Format: functional
Provide the recorded MIC90 for the entries that follow.
Field format: number, assumed µg/mL, no unit text.

Problem: Entry CC1(C)S[C@@H]2[C@H](NC(=O)[C@H](N)c3ccc(O)cc3)C(=O)N2[C@H]1C(=O)O [AMOXICILLIN] : reported MIC90 = ?
Solution: 16

Problem: Entry "CO/N=C(\C(=O)N[C@@H]1C(=O)N2C(C(=O)[O-])=C(C[N+]3(C)CCCC3)CS[C@H]12)c1csc(N)n1" : reported MIC90 = ?
Solution: 4

Problem: Entry CO/N=C(\C(=O)N[C@@H]1C(=O)N2C(C(=O)O)=C(CSc3nc(=O)c(O)nn3C)CS[C@H]12)c1csc(N)n1 [CEFTRIAXONE] : reported MIC90 = ?
Solution: 4

Problem: Entry CO/N=C(\C(=O)N[C@@H]1C(=O)N2C(C(=O)O)=C(COC(C)=O)CS[C@H]12)c1csc(N)n1 [CEFOTAXIME] : reported MIC90 = ?
Solution: 8

Problem: Entry C[C@H]1COc2c(N3CCN(C)CC3)c(F)cc3c(=O)c(C(=O)O)cn1c23.C[C@H]1COc2c(N3CCN(C)CC3)c(F)cc3c(=O)c(C(=O)O)cn1c23.O [LEVOFLOXACIN] : reported MIC90 = ?
Solution: 1

Problem: Entry CC1(C)S[C@@H]2[C@H](NC(=O)Cc3ccccc3)C(=O)N2[C@H]1C(=O)O [PENICILLIN G] : reported MIC90 = ?
Solution: 8

Problem: Entry CCO/N=C(\C(=O)N[C@@H]1C(=O)N2C(C(=O)[O-])=C(Sc3nc(-c4cc[n+](C)cc4)cs3)CS[C@H]12)c1nsc(NP(=O)(O)O)n1 [CEFTAROLINE FOSAMIL] : reported MIC90 = ?
Solution: 0.25

---

# Tested on: Streptococcus pneumoniae
# Measurement Protocol: Antibacterial activity against cefotaxime-intermediate Streptococcus pneumoniae isolate by agar dilution method
# Assay type: functional
Provide the recorded MIC50 for the entries that follow.
Field format: number, assumed µg/mL, no unit text.

Problem: Entry CO/N=C(\C(=O)N[C@@H]1C(=O)N2C(C(=O)O)=C(COC(N)=O)CS[C@H]12)c1ccco1 [CEFUROXIME] : reported MIC50 = ?
Solution: 8

Problem: Entry CCO/N=C(\C(=O)N[C@@H]1C(=O)N2C(C(=O)[O-])=C(Sc3nc(-c4cc[n+](C)cc4)cs3)CS[C@H]12)c1nsc(NP(=O)(O)O)n1 [CEFTAROLINE FOSAMIL] : reported MIC50 = ?
Solution: 0.12

Problem: Entry CC1(C)S[C@@H]2[C@H](NC(=O)[C@H](N)c3ccccc3)C(=O)N2[C@H]1C(=O)O [AMPICILLIN] : reported MIC50 = ?
Solution: 8

Problem: Entry CO/N=C(\C(=O)N[C@@H]1C(=O)N2C(C(=O)O)=C(COC(C)=O)CS[C@H]12)c1csc(N)n1 [CEFOTAXIME] : reported MIC50 = ?
Solution: 2

---

Provide the recorded MIC50 for the entries that follow.
# System: Streptococcus pneumoniae
# Measurement Protocol: Antibacterial activity against levofloxacin-resistant Streptococcus pneumoniae isolate by agar dilution method
# Format: functional
Field format: number, assumed µg/mL, no unit text.

Problem: Entry "CO/N=C(\C(=O)N[C@@H]1C(=O)N2C(C(=O)[O-])=C(C[N+]3(C)CCCC3)CS[C@H]12)c1csc(N)n1" : reported MIC50 = ?
Solution: 0.25

Problem: Entry CO/N=C(\C(=O)N[C@@H]1C(=O)N2C(C(=O)O)=C(CSc3nc(=O)c(O)nn3C)CS[C@H]12)c1csc(N)n1 [CEFTRIAXONE] : reported MIC50 = ?
Solution: 0.06
